- Target Desc: T1, full-length human CD40 on 293T-NF-κB-Luc-CD40 reporter cells (human, UniProt P25942 21-277)
- T1 construct: Stably expressed full-length human CD40; also called uniprot P25942-1
- T1 sequence (P25942 21-277 limits assumed): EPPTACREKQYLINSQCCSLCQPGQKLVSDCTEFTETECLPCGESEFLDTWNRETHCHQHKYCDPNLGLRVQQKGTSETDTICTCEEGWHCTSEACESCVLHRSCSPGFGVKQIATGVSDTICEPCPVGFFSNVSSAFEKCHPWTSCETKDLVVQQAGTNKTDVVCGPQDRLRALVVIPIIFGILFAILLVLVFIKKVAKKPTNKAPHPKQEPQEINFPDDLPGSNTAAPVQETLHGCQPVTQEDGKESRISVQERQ
- Experiment Description: flow cytometry (FACS) on 293T-CD40 cells stably expressing full-length human CD40, PE-labeled goat anti-human IgG Fc, MFI
Recorded Endpoint: pEC50
In plain terms, pEC50 is the concentration in mol/L turned into minus its base-10 logarithm.

Item under review: BM1 (dacetuzumab) (antibody, human IgG1, kappa, V domains shown, Benchmark antibody, prepared in-house; also called CD40-BM1; benchmark) VH: EVQLVESGGGLVQPGGSLRLSCAASGYSFTGYYIHWVRQAPGKGLEWVARVIPNAGGTSYNQKFKGRFTLSVDNSKNTAYLQMNSLRAEDTAVYYCAREGIYWWGQGTLVTVSS VL: DIQMTQSPSSLSASVGDRVTITCRSSQSLVHSNGNTFLHWYQQKPGKAPKLLIYTVSNRFSGVPSRFSGSGSGTDFTLTISSLQPEDFATYFCSQTTHVPWTFGQGTKVEIKR . Reported pEC50?
9.43
